Where do these numbers come from? They come from paper PMC8317927.

experiment: Cell viability, XTT assay; format: cell-based; settings: human, HaCaT keratinocyte cells
value.kind: viability at 24 h, 10 µg/mL (%)
Numeric only. Scale: %

*Q* May I ask what viability at 24 h, 10 µg/mL has been recorded for CC1(C)CC[C@]2(C(=O)O)CC[C@]3(C)C(=CC[C@@H]4[C@@]5(C)CC[C@H](O)C(C)(C)[C@@H]5CC[C@]43C)[C@@H]2C1 [Compound 1, Oleanolic acid, reference compound] ?
*A* 96.7
